Answer each item with its documented pEC50.
Target: T1, human CD37 (human, UniProt P11049 1-281)
T1 construct: whole, on cells; also called CD37 antigen
T1 sequence (looked up): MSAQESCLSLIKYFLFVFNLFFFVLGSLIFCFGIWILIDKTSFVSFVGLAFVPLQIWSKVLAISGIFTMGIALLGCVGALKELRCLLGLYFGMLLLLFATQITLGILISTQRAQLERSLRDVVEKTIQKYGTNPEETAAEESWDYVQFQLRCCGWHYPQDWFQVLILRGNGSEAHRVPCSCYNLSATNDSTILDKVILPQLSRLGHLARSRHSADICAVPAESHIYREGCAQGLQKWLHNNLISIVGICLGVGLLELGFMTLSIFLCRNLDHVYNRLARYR
Assay: competitive radioligand binding on Ramos cells against 177Lu-NNV009 (2.7 nM), gamma counting
The meaning of pEC50 here: minus log10 of the concentration in molar units.

Need pEC50 of AH02879 (antibody, human IgG1, V domains shown, Full-length human IgG1 kappa; constant domains from NNV003; also called NNV020 #4) VH: QIQLVQSGAEVVKPGASVKVSCKASGYSFTDYNMYWVKQAPGQRLEWIGYIDPYNGDTTYNQKFKGRATLTRDTSASTAYMELSSLRSEDTAVYYCARSPYGHYAMDYWGQGTLVTVSS VL: DIQMTQSPSSLSTSVGDRVTITCKASQDVSTAVDWYQQKPGKSPKLLINWASTRHTGVPSRFSGSGSGTDYTLTISSMQPEDFATYYCRQHYSTPFTFGQGTKLEIKR , thanks.
9.02

Need pEC50 of AH02877 (antibody, human IgG1, V domains shown, Full-length human IgG1 kappa; constant domains from NNV003; also called NNV020 #3) VH: QVQLVQSGAEVVKPGASVKVSCKASGYSFTDYNMYWVKQAPGQRLEWMGYIDPYNGDTTYNQKFKGRATLTVDTSASTAYIELSSLRSEDTAVYYCARSPYGHYAMDYWGQGTLVTVSS VL: DIQMTQSPSSLSASVGDRVTITCKASQDVSTAVDWYQQKPGKSPKLLINWASTRHTGVPSRFSGSGSGTDYTLTISSLQPEDFATYYCRQHYSTPFTFGQGTKLEIKR , thanks.
9.04
